Test: NCI Yeast Anticancer Drug Screen. Data for the mlh1 rad18 strain (AID 175)
Condition Notes: S. cerevisiae mlh1 rad18 strain growth inhibition, hits give high values; at 50.0 µM unless noted
Description: Growth inhibition of yeast strains with defined genetic alterations is measured as a screen for potential anti-cancer activity. Selected strains with alterations in DNA damage repair or cell cycle control were exposed to compounds and growth inhibition was measured relative to vehicle treated controls. The strain used in this assay is mlh1 rad18
This is part of a sample that, as a whole, favours compounds with a hit. Of some 79,000 tested, about 15% had one in any assay.
Measured Metric: growth inhibition (%)
// note: answer is a bare numeric in %

# return recorded growth inhibition for entry COC(=O)CC(C)N(c1ccc(Cl)c(Cl)c1)S(=O)(=O)c1ccc(C)cc1 (stereo not drawn)
11.1

Annotate the compound `CC(=O)CC(=O)ON(C)C(=O)Cc1ccccc1` with its measured growth inhibition.
-8.35

// fetch growth inhibition given entry `O=c1oc2ccccc2cc1-c1nc2ccccc2c(=O)[nH]1`
-50.9

Return the recorded growth inhibition value; entry: `CCc1cccc(CC)c1NC(=S)N/C=C(\C#N)S(=O)(=O)c1ccc(C)cc1`
-20.5

Supply reported growth inhibition belonging to this compound: `COc1ccccc1/C=C\C#N`
-13.4

Retrieve growth inhibition measured for `CC(=O)Nc1cccc(OC(=O)Nc2ccc(F)c(Cl)c2)c1` and print it.
82

Return the recorded growth inhibition value; entry: `CC1(C)COC2(CCCCC2)OC1`
8.95

// Input: `Nc1nc(=O)[nH]c(=O)[nH]1` . Output its growth inhibition only.
16.9

Provide growth inhibition value for the following compound: `CCN1CCN(c2nc3ccccc3c3c2CCOc2ccccc2-3)CC1`
6

Answer with the recorded growth inhibition for the compound listed here: `Oc1cc2c(cc1-c1cc3c(cc1O)OCO3)OCO2`
0.55

Give growth inhibition for O=C(O)C1C2CCCC21 (stereo not drawn)
0.8

Return reported growth inhibition. Input compound: `O=C(ON=C1C=CC(=NOC(=O)c2ccccc2)C=C1)c1ccccc1`
7.6

Return value of growth inhibition for input NC(Cc1ccc2nc3c4ccccc4c(=O)cc-3oc2c1)C(=O)O (stereo not drawn) , no commentary.
-13.7

Please list growth inhibition recorded for the compound CC(=O)[CH-]C(=O)c1ccccc1.CC(=O)[CH-]C(=O)c1ccccc1.CC1(C)OCC(C2OC3OC(C)(C)OC3C2[O-])O1.CC[O-].[Ti+4] (stereo not drawn)
33.4

Hello, please tell me recorded growth inhibition for this one: CC1(C)C2(Cl)C(Cl)=C(Cl)C13C(Cl)(c1ccc([N+](=O)[O-])cc1C1(Cl)C(Cl)(Cl)C4(Cl)C(Cl)=C(Cl)C13C4(C)C)C2(Cl)Cl (stereo not drawn)
13

Output measured growth inhibition for this item: `O=c1cc(C(F)(F)F)[nH]c2ccc(F)cc12`
7.55

Answer with reported growth inhibition of `COc1cc2c(cc1OCc1ccccc1)C(Cc1cc(Br)sc1Br)=NCC2`
43.4

Recall and state the measured growth inhibition for COC(=O)CC(NC(=O)OCc1ccccc1)C(=O)NCC(=O)Oc1ccc([N+](=O)[O-])cc1 (stereo not drawn) .
8.5

Provide only the value of recorded growth inhibition for CC(=O)c1ccc2c(c1)NC(=O)CC(C)N2 (stereo not drawn)
0.3

Report measured growth inhibition; entry is CC(=O)N1C(Nc2cnc3ccccc3c2)CCN1c1ccccc1 (stereo not drawn)
-14

Look up and report measured growth inhibition for this entry: COC1=CC(=O)CC(C)C12Oc1c(Cl)c(OC)cc(OC)c1C2=O (stereo not drawn)
17.9

Supply growth inhibition value. Item: O=C1NCC1c1ccccc1 (stereo not drawn)
3.45

For the compound Nc1ncnc2c1ncn2C1OC(CO)C(NC(=O)C(N)Cc2ccccc2)C1O (stereo not drawn) , report growth inhibition.
-9.5

meta.source: PubChem BioAssay (NCI)
